run_description: Quantitative High-Throughput drug screen in 47 multiple myeloma cell lines against the NCATS MIPE library collection: INA6_PLB cell viability assay (AID 1918965; also: nearly all actives have a fitted effect of over 55% in size)
run_conditions: INA6 myeloma viability, CellTiter-Glo ATP luminescence, 48 h; series mostly up to 45.8 µM
Results filed as inconclusive are left out. Active and inactive are the calls of the source. Calls follow the shape of the dose curve; as a rule, active = well fitted cell-killing curve with a large enough effect; inconclusive = small, poorly fitted or top-dose-only effect, or effect the other way; inactive = no such curve, though single readings can be large or run the other way.
Hello, when you answer, please use one of the following outcomes: true (1) for active, false (0) for inactive

compound	assigned_class
CC(=O)Nc1ccc([C@H](C)C(=O)Nc2ncc(C(C)C)s2)cc1	true (1)
CC(C)(C)c1cc(C(=O)O)c(NC(=O)Nc2ccc3[nH]ncc3c2)s1	false (0)
O=c1c(-c2ccc(O)cc2)coc2cc(OC3O[C@H](CO)[C@H](O)[C@H](O)[C@H]3O)cc(O)c12 (some centres not stated)	true (1)
CC=CCC=CCCC(=O)[C@H]1O[C@@H]1C(N)=O	true (1)
CC(C)(C)COc1ccc(-n2cc(C(=O)O)cn2)cc1C#N	false (0)
CCCCCCCCCCCC1=C(O)C(=O)C=C(O)C1=O	true (1)
COc1cc(Nc2ncc(F)c(Nc3ccc4c(n3)NC(=O)C(C)(C)O4)n2)cc(OC)c1OC	true (1)
Nc1ncnc2ccccc12	false (0)

Request: Query: recorded result category for Cc1ccccc1C(C(=O)NC1CCCCC1)N(C(=O)Cn1ccnc1C)c1cccc(F)c1 (configuration not stated) in this test
Response: false (0)

Request: Query: recorded result category for CCC(CC)[C@H](NC(C)=O)[C@@H]1[C@H](O)[C@@H](C(=O)O)C[C@@H]1N=C(N)N in this test
Response: false (0)

Request: Query: recorded result category for O=C(Nc1ccccc1Br)N[C@@H]1CCN(c2ccc(C(F)(F)F)cn2)C1 in this test
Response: true (1)

Request: Query: recorded result category for Cc1ccc(/C=N/NC(=O)c2ccccc2Oc2ccccc2)o1 in this test
Response: true (1)

====

target: Glucocorticoid receptor (Homo sapiens) (UniProt P04150)
Sequence (P04150 whole entry, looked up): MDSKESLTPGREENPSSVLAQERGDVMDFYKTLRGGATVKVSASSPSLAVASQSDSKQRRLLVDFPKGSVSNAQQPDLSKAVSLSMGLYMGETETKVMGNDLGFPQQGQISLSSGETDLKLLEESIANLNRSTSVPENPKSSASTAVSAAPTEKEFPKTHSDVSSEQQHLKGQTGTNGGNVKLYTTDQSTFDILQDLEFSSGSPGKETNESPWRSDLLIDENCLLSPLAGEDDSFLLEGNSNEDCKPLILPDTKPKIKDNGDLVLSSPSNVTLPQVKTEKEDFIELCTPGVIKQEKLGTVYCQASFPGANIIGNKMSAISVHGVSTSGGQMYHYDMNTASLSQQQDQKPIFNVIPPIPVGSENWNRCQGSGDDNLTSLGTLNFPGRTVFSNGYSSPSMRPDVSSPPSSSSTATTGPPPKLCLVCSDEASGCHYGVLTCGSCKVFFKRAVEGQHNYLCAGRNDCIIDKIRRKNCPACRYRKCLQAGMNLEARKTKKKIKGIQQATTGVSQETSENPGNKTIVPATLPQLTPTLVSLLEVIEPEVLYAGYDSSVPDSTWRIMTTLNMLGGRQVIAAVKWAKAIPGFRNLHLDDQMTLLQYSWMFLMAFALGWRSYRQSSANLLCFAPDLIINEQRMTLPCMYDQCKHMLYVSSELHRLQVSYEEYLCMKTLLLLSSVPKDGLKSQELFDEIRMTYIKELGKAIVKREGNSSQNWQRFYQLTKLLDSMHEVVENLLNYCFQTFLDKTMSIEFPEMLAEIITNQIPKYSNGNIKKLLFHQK
run_description: GR-EFC Redistribution (AID 451); also: potency is read from the fitted curve at half-maximal effect
run_conditions: CHO-K1 GR-EFC translocation, beta-gal luminescence, 2 h
The source made the active and inactive calls. Calls follow the shape of the full dose curve.
readout_type: Potency

Field: example entries. Status: answers known.
molecule	readout_type	result
C[C@@H](O)[C@H]1C(=O)N2C(C(=O)O)=C(S[C@@H]3CN[C@H](C(=O)N(C)C)C3)[C@H](C)[C@H]12	Potency	> 20.6 µM (inactive)
Nc1ncnc2c1ncn2[C@@H]1O[C@@H](CO)[C@H](O)[C@H]1O	Potency	> 20.6 µM (inactive)
CC1(C)CCC2=C(O1)c1ccccc1C(=O)C2=O	Potency	> 46 µM (inactive)

# batch size: 5; output Potency per entry
1. COc1cccc(-c2cc(=O)c3ccccc3o2)c1N
2. c1cc(-c2sc(-c3ccncc3)c(-c3ccncc3)c2-c2ccncc2)ccn1
3. O=c1c(-c2ccc(O)cc2)coc2cc(O)ccc12
4. O=c1cc(-c2ccccc2)oc2cc(O)cc(O)c12
5. COc1ccc2c3c1OC1C[C@@H](O)C=C[C@@]31CCN(C)C2 (stereo partly drawn)

Response:
1: > 46 µM (inactive); 2: > 9.22 µM (inactive); 3: > 46 µM (inactive); 4: > 20.6 µM (inactive); 5: > 20.6 µM (inactive)

====

run_description: Quantitative High-Throughput drug screen in 47 multiple myeloma cell lines against the NCATS MIPE library collection: INA6_PLB cell viability assay (AID 1918965)
run_conditions: INA6 myeloma viability, CellTiter-Glo ATP luminescence, 48 h; series mostly up to 45.8 µM
From the text: PI: Beverly A. Mock Ph.D. Laboratory of Cancer Biology and Genetics, Center for Cancer Research, National Cancer Institute, National Institute of Health, Bethesda, Maryland […] 5; Detector; 425V; Luminescence; Viewlux PerkinElmer. […] 1. […] Briefly, the corresponding myeloma cell lines were screened in 1,536-well plates with 500 cells, 5-uL per well for inhibition of cell viability (assessed by measuring ATP levels with CellTiterGlo). […]
Inconclusive results are not listed. Active and inactive are the calls of the source. The call rests on the fitted dose curve; in most records, active means well fitted cell-killing curve with a large enough effect; inconclusive means small, poorly fitted or top-dose-only effect, or effect the other way; inactive means no such curve, though single readings can be large or run the other way.
Hello, when you answer, please use one of the following outcomes: 1 (active), -1 (inactive)

Example results:
molecule	assigned_class
C=C1C(=O)OC2C=C(C)CCC=C(C)CCC12 (stereo not given)	1
Nc1ncnc2c1ncn2[C@@H]1O[C@H](CO)C[C@@H]1O	-1
NC(=O)c1cccc(-c2cc(Nc3ccc(OC(F)(F)F)cc3)ncn2)c1	1
CC(C)OC(=O)CCCC=CC[C@@H]1[C@H](C=C[C@@H](O)COc2cccc(C(F)(F)F)c2)[C@H](O)C[C@@H]1O	1
O=C(Nc1cccc(Br)c1)c1cccc(S(=O)(=O)N2CCCCCC2)c1	1
N#CC1(c2ccc(NC(=O)c3cccnc3NCc3ccncc3)cc2)CCCC1	1
CON=C(C(=O)N[C@@H]1C(=O)N2C(C(=O)OCOC(=O)C(C)(C)C)=C(C=Cc3scnc3C)CS[C@H]12)c1csc(N)n1	1
CN(C)Cc1cccc(N=C(c2ccccc2)c2c(O)[nH]c3cc(C(=O)N(C)C)ccc23)c1	1
CC(C(=O)O)c1ccc(-c2ccccc2)c(F)c1 (stereo not given)	1

Turning now to a further record.
Request: Query: recorded result category for Cn1c(N2CCCCS2(=O)=O)nc(C(=O)NCc2ccc(F)cc2)c(O)c1=O in this test
Response: -1
